B1: HDV Ribozyme (parent)
chain: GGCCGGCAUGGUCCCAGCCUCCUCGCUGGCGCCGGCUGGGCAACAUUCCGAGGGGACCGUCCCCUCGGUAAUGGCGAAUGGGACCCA

# Variants of: B1
# Test name: self-cleavage, relative activity (ratio to wild type); higher = more cleavage; co-transcriptional
Returns the class for an entry based on its self-cleavage. Class ranges: lower band: < 0.2; central band: ≥ 0.2 and < 0.5; upper band: ≥ 0.5

Pick a category. Item: G55A C61G
upper band

Pick a category. Item: C24A A56C
upper band

Pick a category. Item: U12C A45C
lower band

Pick a category. Item: U23G C63U
central band

Pick a category. Item: C30G G74U
lower band

Pick a category. Item: G31A G52U
upper band

Pick a category. Item: G17C C44U
lower band

Pick a category. Item: G17U A70U
upper band

Pick a category. Item: A78U U79G
lower band

Pick a category. Item: C41A A83C
central band

Pick a category. Item: C4U C24U
central band

Pick a category. Item: U20A C58U
lower band

Pick a category. Item: C15U G81U
upper band

Pick a category. Item: C32U C58U
upper band

Pick a category. Item: G17A C41U
central band

Pick a category. Item: G55A C61A
upper band

Pick a category. Item: A42C U46C
central band

Pick a category. Item: C4G A77C
lower band

Pick a category. Item: G81C
central band

Pick a category. Item: C21G G38C
lower band

Pick a category. Item: C44A G74C
central band
